pIC50: −log10 of the molar value.
The molecules below each have a reported pIC50 tested on TACE (Homo sapiens (Human), UniProt P78536); the values come from various publications.

See these solved cases before continuing.
molecule	pIC50
Cc1cccn(CC2(c3ccc(-c4ccc(F)cc4)cc3)NC(=O)NC2=O)c1=O (centres unmarked)	> 7.00
Cc1cccn(CC2(c3cc4ccccc4o3)NC(=O)NC2=O)c1=O (centres unmarked)	> 7.00
CC#CCOc1ccc(S(=O)(=O)N(C)[C@@H]2CCCC[C@H]2C(=O)NO)cc1	7.55
CC#CCOc1ccc(S(=O)(=O)N(C)[C@H]2CCCC[C@H]2C(=O)NO)cc1 (relative stereo)	7.28
O=C(NO)[C@H]1CN(C(=O)C(=O)N2CCOCC2)CCN1S(=O)(=O)c1cc(F)c(Oc2ccc(Cl)cc2)c(F)c1	6.00 to 7.30
COc1cccn(CC2(c3ccccc3)NC(=O)NC2=O)c1=O (centres unmarked)	6.00 to 7.00
O=CN(O)C(CS(=O)(=O)N1CCc2ccccc2C1)c1cncnc1 (centres unmarked)	6.89

Problem: Which value of pIC50 has been reported for Cc1cccn(CC2(c3ccc4c(c3)CCCO4)NC(=O)NC2=O)c1=O (centres unmarked) in the records?
Solution: > 7.00

* * *

The molecules below each have a reported IC50 tested on TACE (Homo sapiens (Human), UniProt P78536); the values come from various publications.

See these solved cases before continuing.
molecule	IC50
COc1cc(N2CCN(C(=O)CCC3(C)NC(=O)NC3=O)CC2)cc(Cl)c1Cl (centres unmarked)	> 100 nM
O=CN(O)C(CS(=O)(=O)N1CCc2cc(C(F)(F)F)ccc2C1)C1CC1 (centres unmarked)	> 5000 nM
CC#CCOc1ccc(S(=O)(=O)CC2(C(=O)NO)CCN(C(C)=O)CC2)cc1	4.8 nM
O=CN(O)C(CS(=O)(=O)N1CCc2ccc(Cl)cc2C1)C1CC1 (centres unmarked)	88 nM

Problem: Which value of IC50 has been reported for CC1(C)OC[C@H](C(CS(=O)(=O)N2CCc3ccccc3C2)N(O)C=O)O1 (some centres unmarked) in the records?
Solution: 33 nM

Problem: Here is the next molecule: CC(C)CCOc1ccc(S(=O)(=O)C2(C(=O)NO)CCN(Cc3ccccc3)CC2)cc1
Solution: 565 nM

Problem: Here is the next molecule: Cc1cccn(CC2(c3ccc4c(c3)OCCCO4)NC(=O)NC2=O)c1=O (centres unmarked)
Solution: < 100 nM

Problem: Here is the next molecule: Cc1cccn(CC2(c3ccc(Oc4cccnc4)cc3)NC(=O)NC2=O)c1=O (centres unmarked)
Solution: < 100 nM

Problem: Here is the next molecule: N#Cc1ccc(C2(Cn3cccc(F)c3=O)NC(=O)NC2=O)cc1 (centres unmarked)
Solution: < 100 nM

* * *

The compounds below each have a reported pIC50 tested on TACE (Homo sapiens (Human)); the values come from various publications.
The read-out pIC50 is expressed as -log10 of concentration in moles per litre.

compound	subject of test	pIC50
CC(C)(C)C(CS(=O)(=O)N1CCc2ccc(Cl)cc2C1)N(O)C=O (centres unmarked)	TACE (Homo sapiens (Human))	6.31

Problem: Which value of pIC50 has been reported for CN1CCC(C(=O)NO)(S(=O)(=O)c2ccc(Oc3ccc(Cl)cc3)cc2)CC1 in the records?
Solution: 6.57

Problem: Here is the next compound: CC#CCOc1ccc(S(=O)(=O)NC2C3CCC(C3)C2C(=O)NO)cc1 (centres unmarked)
Solution: 7.52

Problem: Here is the next compound: CC#CCOc1ccc(S(=O)(=O)CC2(C(=O)NO)CCN(S(=O)(=O)c3cn(C)cn3)CC2)cc1
Solution: 7.42
